Assignment: determine reported relative % inhibition for the given compounds.
Tested on: P. falciparum NF54-pfs16-GFP late (IV-V) stage gametocytes
Experiment: relative % inhibition of viable gametocyte number; higher = more gametocytocidal
Settings: 0.5 µM; stage: late (IV-V) gametocyte; incubation 72 h
Give bare numbers, in %.

Worked examples follow.
[
  {
    "compound": "Cc1ccccc1OCCSc1nc2ccc(NC(=O)c3ccccc3)cc2s1",
    "unit.abbreviation": "%",
    "assay.value": 2.82
  },
  {
    "compound": "Nc1ccc(-c2nc3cc(Oc4ccc(Oc5ccc6[nH]c(-c7ccc(N)cc7)nc6c5)cc4)ccc3[nH]2)cc1",
    "unit.abbreviation": "%",
    "assay.value": 13.4
  },
  {
    "compound": "CC1(c2ccccc2)Nc2ccccc2-c2nc3ccccc3n21 (stereo not given)",
    "unit.abbreviation": "%",
    "assay.value": 46.2
  },
  {
    "compound": "Cc1cc(Nc2ccc(C)c(Cl)c2)n2nc(C(F)(F)F)nc2n1",
    "unit.abbreviation": "%",
    "assay.value": 13.1
  },
  {
    "compound": "Cc1cc(NC(=O)c2ccc(-c3ccccc3)cc2)no1",
    "unit.abbreviation": "%",
    "assay.value": 13.3
  },
  {
    "compound": "O=C(Nc1nc(-c2ccccn2)cs1)c1ccccc1Br",
    "unit.abbreviation": "%",
    "assay.value": -7.93
  },
  {
    "compound": "COc1ccc(CCNC(=O)c2cc(S(=O)(=O)N3CC(C)CC(C)C3)ccc2Sc2ccc(F)cc2)cc1OC (stereo not given)",
    "unit.abbreviation": "%",
    "assay.value": 17.9
  },
  {
    "compound": "CC(C)(C)C(=O)Nc1ccc(C(=O)Nc2cccc(-c3nc4ccccc4[nH]3)c2)cc1",
    "unit.abbreviation": "%",
    "assay.value": 3.45
  }
]

Batch: relative % inhibition for all items listed.
1. O=C(Nc1ccc(-c2nc3cc(NC(=O)c4ccc(Cl)cc4)ccc3[nH]2)cc1)c1ccc(Cl)cc1
2. CCN1CCN(c2cc(C)c3cc(NC(=O)c4ccc(OC)c(OC)c4)ccc3n2)CC1

[-5.09, -6.56]
